molecular target: alpha-thrombin (human) (Homo sapiens, UniProt P00734;P00734 315-363;364-622); assay: SPR; SPR (Biacore X100, CM5, single-cycle kinetics, 1:1 fit): PBS pH 7.4, 0.05% (v/v) Tween 20; aptamers annealed in PBS (95 to 25 C); 1 M NaCl regeneration; assay t
pKd: −log10 of the molar value.

[
  {
    "binder": "Pse08-08 (M08s-ds17-M08s) (structured_DNA) DNA: GTCACTAGAGGTCAGATGATGGGGATGGGGGGTTGGAGGAATGGATGACCTCTAGTGACTGATTTACGAGGTCAGATGATGGGGATGGGGGGTTGGAGGAATGGATGACCTCGTAAATCA",
    "pKd": 9.40
  },
  {
    "binder": "AGTCCGTGGTAGGGCAGGTTGGGGTGACT (structured_DNA) [TBA29 (HD22)]",
    "pKd": 7.43
  },
  {
    "binder": "AGGTCAGATGATGGGGATGGGGGGTTGGAGGAATGGATGACCT (structured_DNA) [M08s-1 (M08s)]",
    "pKd": 7.33
  }
]
